The origin of these recorded values is patent US20090028925A1.

- Assay text: Tissue distribution and pharmacokinetics following IP administration to normal rats
- Assay type: in vivo, SD rats
- Experimental parameters: male, SD, rat, plasma, 10 mg/kg IP, read-out: Vz(observed)/F
Measured metric: Vd/F (L/kg)
The figure you give is taken to be in L/kg; do not add the unit.

stdin: Which Vd/F value belongs to Cc1cc(OCC(=O)O)cc(C)c1Cc1ccc(O)c(C(C)C)c1 [Compound 17, reference compound] ?
stdout: 2.2

stdin: Which Vd/F value belongs to Cc1cc(OCP(=O)(O)O)cc(C)c1Cc1ccc(O)c(C(C)C)c1 ?
stdout: 0.401

----------
- Target desc: human thyroid hormone receptors TRα1 (Homo sapiens, UniProt P10827)
- Construct: made in house; host or cells: Sf9 insect cells (baculovirus)
- Sequence (P10827 1-410 isoform P10827-2): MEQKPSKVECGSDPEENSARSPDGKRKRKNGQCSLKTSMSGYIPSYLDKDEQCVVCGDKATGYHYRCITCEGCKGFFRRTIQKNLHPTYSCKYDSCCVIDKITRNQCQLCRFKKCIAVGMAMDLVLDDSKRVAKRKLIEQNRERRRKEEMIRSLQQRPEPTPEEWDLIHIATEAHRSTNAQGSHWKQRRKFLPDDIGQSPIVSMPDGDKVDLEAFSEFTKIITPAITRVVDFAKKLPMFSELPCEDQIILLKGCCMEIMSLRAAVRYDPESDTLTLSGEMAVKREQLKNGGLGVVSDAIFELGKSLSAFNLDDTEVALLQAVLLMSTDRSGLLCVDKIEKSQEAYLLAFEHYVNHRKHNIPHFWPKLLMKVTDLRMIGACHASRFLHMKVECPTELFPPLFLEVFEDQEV
- Sequence (P19793 1-462 partner): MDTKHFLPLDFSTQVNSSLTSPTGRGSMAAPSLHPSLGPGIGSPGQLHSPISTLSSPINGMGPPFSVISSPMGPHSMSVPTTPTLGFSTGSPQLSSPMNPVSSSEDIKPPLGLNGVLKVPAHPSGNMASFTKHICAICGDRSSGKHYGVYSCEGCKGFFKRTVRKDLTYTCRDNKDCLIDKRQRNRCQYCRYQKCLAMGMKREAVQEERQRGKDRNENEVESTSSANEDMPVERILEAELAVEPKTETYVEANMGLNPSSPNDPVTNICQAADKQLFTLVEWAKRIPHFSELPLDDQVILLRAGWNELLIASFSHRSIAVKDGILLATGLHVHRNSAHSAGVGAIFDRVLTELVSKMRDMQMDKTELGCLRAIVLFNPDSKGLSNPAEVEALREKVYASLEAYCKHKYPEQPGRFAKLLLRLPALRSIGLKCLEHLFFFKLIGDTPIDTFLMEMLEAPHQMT
- Assay text: Receptor binding to TRα1 (gel filtration and scintillation proximity assay, labeled T3)
- Experimental parameters: read-out: Ki TRα
- Description: Methods: Baculoviruses expressing TRα1, TRβ1 and RXRα were generated using cDNA and other reagents from Invitrogen (Carlsbad, Calif.). To produce TR/RXR heterodimer proteins, the sf9 insect cells were first grown to a density of 1-5×10^5 cells/mL. […] and RXRα baculovirus stocks were added to the cell culture with a ratio of 1 to 1 (multiplicity of infection=10). The cells were harvested three days after the infection. […]
pKi: −log10 of the molar value.
Record T whenever pKi is at 7 or higher; record F when lower.

stdin: hey, is pKi for this one >= 7? Cc1cc(CP(=O)(O)O)cc(C)c1Oc1ccc(O)c(C(C)C)c1 [Compound 19-3]
stdout: F

stdin: hey, is pKi for this one >= 7? Cc1cc(NC(=O)P(=O)(O)O)cc(C)c1Oc1ccc(O)c(C(C)C)c1 [Compound 1]
stdout: F

stdin: hey, is pKi for this one >= 7? Cc1cc(OCP(=O)(O)O)cc(C)c1Cc1ccc(O)c(-c2ccccc2)c1 [Compound 7-1]
stdout: F

stdin: hey, is pKi for this one >= 7? CC(C)c1cc(Oc2c(Br)cc(OCP(=O)(O)O)cc2Br)ccc1O [Compound 8-1]
stdout: T

stdin: hey, is pKi for this one >= 7? CC(C)c1cc(Oc2c(Cl)cc(CP(=O)(O)O)cc2Cl)ccc1O [Compound 19]
stdout: F

stdin: hey, is pKi for this one >= 7? CC(C)c1cc(Oc2c(I)cc(OCP(=O)(O)O)cc2I)ccc1O [Compound 8]
stdout: T

stdin: hey, is pKi for this one >= 7? Cc1cc(OCCP(=O)(O)O)cc(C)c1Cc1ccc(O)c(C(C)C)c1 [Compound 26]
stdout: F

stdin: hey, is pKi for this one >= 7? CC(C)c1cc(Oc2c(I)cc(CP(=O)(O)O)cc2I)ccc1O [Compound 5]
stdout: T

stdin: hey, is pKi for this one >= 7? NC(Cc1cc(I)c(Oc2ccc(O)c(I)c2)c(I)c1)P(=O)(O)O (centres unmarked) [Compound 2]
stdout: F
